Tested on: HT29
procedure_summary: cells
Format: cell-based
Counter-ions that a name gives are not always drawn.
Assignment: determine reported HT29 HCR: Air/N2 for the given compounds.
Hey, just send me the number, nothing else.

### Prompt Return HT29 HCR: Air/N2 for the following compound: CC(C)Nc1ccc(CC(c2ccsc2[N+](=O)[O-])S(=O)(=O)Oc2ccc(N(CCCl)CCCl)cc2)cn1 (stereo not shown)
### Response 3.3

### Prompt Give me measured HT29 HCR: Air/N2, please, for this compound: O=[N+]([O-])c1sccc1CS(=O)(=O)Oc1ccc(N(CCCl)CCCl)c(F)c1
### Response 20

### Prompt Supply measured HT29 HCR: Air/N2 of Nc1ccc(CC(c2ccsc2[N+](=O)[O-])S(=O)(=O)Oc2ccc(N(CCCl)CCCl)cc2)cn1 (stereo not shown) [TH-1255, trifluoroacetate] in your reply.
### Response 16

### Prompt Let me know recorded HT29 HCR: Air/N2 for O=[N+]([O-])c1sccc1C(Cc1ccc2nnn(CCO)c2c1)S(=O)(=O)Oc1ccc(N(CCCl)CCCl)cc1 (stereo not shown) , thanks.
### Response 45

* * *

System: HT29
procedure_summary: cells
Type: cell-based
reported_conditions: Homo sapiens, HT-29, 2 h, read-out: 2 hr N2 HT29 IC50
Consider the following compounds; for each one, report its pIC50.
Keep it numeric: pIC50 is minus log10 of the concentration in mol/L.

### Prompt Supply measured pIC50 of O=[N+]([O-])c1sccc1C(Cc1ccc2nccn2c1)S(=O)(=O)Oc1ccc(N(CCCl)CCCl)cc1 (centres unmarked) [TH-1435] in your reply.
### Response 5.07

### Prompt # return recorded pIC50 for entry C[C@H](O)C(=O)Nc1ccc(CC(c2ccsc2[N+](=O)[O-])S(=O)(=O)Oc2ccc(N(CCCl)CCCl)cc2)cn1 (some centres unmarked) [TH-1465]
### Response 5.15

### Prompt Provide measured pIC50 value, entry: O=[N+]([O-])c1sccc1C(COC1CCCCC1)S(=O)(=O)Oc1ccc(N(CCCl)CCCl)cc1 (centres unmarked) [TH-1521]
### Response 4.03

### Prompt Give the reported pIC50 for this compound. COCC(=O)Nc1ccc(CC(c2ccsc2[N+](=O)[O-])S(=O)(=O)Oc2ccc(N(CCCl)CCCl)cc2)cc1 (centres unmarked) [TH-1479]
### Response 3.96

### Prompt Provide measured pIC50 value, entry: O=C(CO)Nc1ccc(CC(c2ccsc2[N+](=O)[O-])S(=O)(=O)Oc2ccc(N(CCCl)CCCl)cc2)cn1 (centres unmarked) [TH-1354]
### Response 4.70

### Prompt Provide one value: measured pIC50 of O=[N+]([O-])c1sccc1C(Cn1nnc2ccccc21)S(=O)(=O)Oc1ccc(N(CCCl)CCCl)cc1 (centres unmarked) [TH-1343]
### Response 4.62

### Prompt Annotate the compound CC(=O)Nc1cc(CC(c2ccsc2[N+](=O)[O-])S(=O)(=O)Oc2ccc(N(CCCl)CCCl)cc2)ccn1 (centres unmarked) [TH-1376] with its measured pIC50.
### Response 4.28

### Prompt Provide pIC50 value for the following compound: O=[N+]([O-])c1sccc1C(Cc1cccnc1)S(=O)(=O)Oc1ccc(N(CCCl)CCCl)cc1 (centres unmarked) [TH-1331]
### Response 4.96

### Prompt Given the compound O=[N+]([O-])c1sccc1CS(=O)(=O)Oc1ccc(N(CCCl)CCCl)c(F)c1 [TH-1192] , write its reported pIC50.
### Response 5.10

### Prompt State its pIC50: COCC(=O)N(C)c1ccc(CC(c2ccsc2[N+](=O)[O-])S(=O)(=O)Oc2ccc(N(CCCl)CCCl)cc2)cn1 (centres unmarked) [TH-1478]
### Response 4.70

### Prompt Return value of pIC50 for input O=[N+]([O-])c1sccc1C(Cc1ccc(O)nc1)S(=O)(=O)Oc1ccc(N(CCCl)CCCl)cc1 (centres unmarked) [TH-1305] , no commentary.
### Response 5.17

### Prompt Provide pIC50 value for the following compound: CC(=O)Nc1ccncc1CC(c1ccsc1[N+](=O)[O-])S(=O)(=O)Oc1ccc(N(CCCl)CCCl)cc1 (centres unmarked) [TH-1364]
### Response 4.89

### Prompt Let me know recorded pIC50 for CN1CCN(S(=O)(=O)CCC(c2ccsc2[N+](=O)[O-])S(=O)(=O)Oc2ccc(N(CCCl)CCCl)cc2)CC1 (centres unmarked) [TH-1326] , thanks.
### Response 5.59

### Prompt Please report pIC50 for the following compound: O=C(CO)Nc1ccc(CC(c2ccsc2[N+](=O)[O-])S(=O)(=O)Oc2ccc(N(CCCl)CCCl)cc2)cc1 (centres unmarked) [TH-1400]
### Response 4.10

### Prompt Return pIC50 for the following compound: O=[N+]([O-])c1sccc1C(Cc1ccc(OCCO)nc1)S(=O)(=O)Oc1ccc(N(CCCl)CCCl)cc1 (centres unmarked) [TH-1315]
### Response 4.89

### Prompt Return pIC50 for the following compound: O=[N+]([O-])c1sccc1C(Cc1cn2ccccc2n1)S(=O)(=O)Oc1ccc(N(CCCl)CCCl)cc1 (centres unmarked) [TH-1456]
### Response 5.30

### Prompt Specify reported pIC50 for the compound shown: O=[N+]([O-])c1sccc1C(Cc1ccc2nnn(CCO)c2c1)S(=O)(=O)Oc1ccc(N(CCCl)CCCl)cc1 (centres unmarked) [TH-1457]
### Response 5.40

### Prompt Retrieve pIC50 measured for O=[N+]([O-])c1sccc1C(CCS(=O)(=O)N1CCC(O)CC1)S(=O)(=O)Oc1ccc(N(CCCl)CCCl)cc1 (centres unmarked) [TH-1347] and print it.
### Response 4.70

### Prompt Recall and state the measured pIC50 for O=[N+]([O-])c1sccc1C(Cc1ccccn1)S(=O)(=O)Oc1ccc(N(CCCl)CCCl)cc1 (centres unmarked) [TH-1357] .
### Response 3.30

### Prompt Identify pIC50 associated with the compound O=[N+]([O-])c1sccc1C(Cc1ccc2c(c1)nnn2CCO)S(=O)(=O)Oc1ccc(N(CCCl)CCCl)cc1 (centres unmarked) [TH-1451]
### Response 5.22

### Prompt Give pIC50 for Cn1ccnc1CC(c1ccsc1[N+](=O)[O-])S(=O)(=O)Oc1ccc(N(CCCl)CCCl)cc1 (centres unmarked) [TH-1366]
### Response 4.89

// data source = patent US8309554B2
